# tested.on: G-protein coupled receptor 35 (Homo sapiens)
# assay.comment: inhibition of zaprinast-stimulated GPR35 beta-arrestin translocation – imaging, U2OS, beta-arrestin-GFP, zaprinast agonist, primary screen (AID 2058)
# experimental.conditions: zaprinast antagonism, at 10 µM
Among all 290,000 compounds or so, about 150 (0.052%) were called active.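 The calls were made as follows: active = inhibition of at least 50% with at least 30 cells and total cytoplasm GFP at most 10,000,000; inconclusive = under 30 cells or total GFP of 10,000,000 plus; inactive = the rest.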 The full list was thinned out, with actives kept by preference. Measured potencies and affinities stand elsewhere.
Your answer must be one of the following: True for active, False for inactive

stdin: Which outcome was entered for the compound `O=C(CCN1C(=O)c2ccncc2C1=O)Nc1ccc(F)cc1` in this test?
stdout: False

stdin: Which outcome was entered for the compound `Cc1cccc(Oc2ncnc3onc(C)c23)c1` in this test?
stdout: False

stdin: Which outcome was entered for the compound `CCOC(=O)CCCSc1nc2sc3c(c2c(=O)[nH]1)CCC3` in this test?
stdout: False

stdin: Which outcome was entered for the compound CN1CC=C2C(C#N)=C(N)C(C#N)(C#N)[C@H](c3cccc(Cl)c3)C2C1 (stereo partly drawn) in this test?
stdout: True

stdin: Which outcome was entered for the compound `Cc1nc(CC(=O)O)c(-c2ccccc2)s1` in this test?
stdout: False

stdin: Which outcome was entered for the compound `O=C(COc1ccc(Cl)cc1Cl)NCCSc1ccc(Cl)cc1` in this test?
stdout: False

stdin: Which outcome was entered for the compound COC(=O)C1CN(S(=O)(=O)c2cc(OC)ccc2OC)CCS1 (stereo not drawn) in this test?
stdout: False

stdin: Which outcome was entered for the compound `CC[n+]1ccccc1/C=C/c1ccc(N(C)C)cc1` in this test?
stdout: False

stdin: Which outcome was entered for the compound CN1C=CC2=C(C#N)C(N)C(C#N)(C#N)[C@H](c3ccccc3)[C@H]2C1 (stereo partly drawn) in this test?
stdout: False

stdin: Which outcome was entered for the compound `C=CCn1c(SCC(=O)Nc2ccc(Cl)cn2)nnc1C1CC1` in this test?
stdout: False

stdin: Which outcome was entered for the compound O=C(NC1CCCC1)C(c1ccccn1)N(C(=O)c1csnn1)c1ccccc1 (stereo not drawn) in this test?
stdout: False

stdin: Which outcome was entered for the compound `CCn1c(O)c(/C=C/C=C/C=Nc2ccccc2)sc1=S` in this test?
stdout: False

stdin: Which outcome was entered for the compound COc1cc(C2C3CN(C)CC=C3C(C#N)=C(N)C2(C#N)C#N)ccc1OC(C)C (stereo not drawn) in this test?
stdout: False

stdin: Which outcome was entered for the compound `CCCS(=O)(=O)c1c(S(=O)(=O)CCC)c2c3ccccc3ccn2c1C(N)=O` in this test?
stdout: False

stdin: Which outcome was entered for the compound `Cc1nn(-c2ccccc2)nc1C(N)=O` in this test?
stdout: False

stdin: Which outcome was entered for the compound `O=C(NN1CCOCC1)c1ccccc1Br` in this test?
stdout: False

stdin: Which outcome was entered for the compound `O=C(Cc1cccc2ccccc12)Nc1cc(Cl)ccc1C(=O)O` in this test?
stdout: False

stdin: Which outcome was entered for the compound CC(C)CCN1CCNC(=O)C1CC(=O)NCCCN1CCOCC1 (stereo not drawn) in this test?
stdout: False

stdin: Which outcome was entered for the compound C=CCn1c(SCC(=O)N(C)C2CCS(=O)(=O)C2)nnc1-c1ccncc1 (stereo not drawn) in this test?
stdout: False

stdin: Which outcome was entered for the compound CS(=O)(=O)N1N=C(c2ccc(Br)cc2)CC1c1ccc2c(c1)OCO2 (stereo not drawn) in this test?
stdout: False

stdin: Which outcome was entered for the compound `CN1CC=C2C(C#N)=C(N)C(C#N)(C#N)[C@H](c3cccs3)[C@H]2C1` in this test?
stdout: False

stdin: Which outcome was entered for the compound `CCOC(=O)C1=C(Cc2ccc(C)cc2)C(=O)c2ccccc2C1=O` in this test?
stdout: False

stdin: Which outcome was entered for the compound `COc1cc([C@@H]2[C@H]3CN(C)CC=C3C(C#N)=C(N)C2(C#N)C#N)cc2c1OCO2` in this test?
stdout: False

stdin: Which outcome was entered for the compound `CC(=O)N1CCc2cc(S(=O)(=O)CCC(=O)N3CCN(c4ccccc4F)CC3)ccc21` in this test?
stdout: False

stdin: Which outcome was entered for the compound `Cc1nc2c(C(=O)NCc3ccc4c(c3)OCO4)cnn2c(C)c1Cc1ccc(F)cc1Cl` in this test?
stdout: False

stdin: Which outcome was entered for the compound `COc1ccc(/C=C2\Cc3ccccc3C2=O)cc1OC` in this test?
stdout: False

stdin: Which outcome was entered for the compound O=C(CSc1nnc(Cn2c(=O)sc3ccccc32)n1-c1ccccc1)NCC1CCCO1 (stereo not drawn) in this test?
stdout: False

stdin: Which outcome was entered for the compound Cc1ccc(NC(=O)C(C)Sc2nnc(-c3cccnc3)n2-c2ccccc2)cc1 (stereo not drawn) in this test?
stdout: False

stdin: Which outcome was entered for the compound Cc1ccc(C2=NN(S(C)(=O)=O)C(c3ccc4c(c3)OCO4)C2)cc1 (stereo not drawn) in this test?
stdout: False

stdin: Which outcome was entered for the compound `CC[n+]1c(/C=C/c2ccc(N(C)C)cc2)ccc2ccccc21` in this test?
stdout: False

stdin: Which outcome was entered for the compound CCN1C=CC2=C(C#N)C(N)C(C#N)(C#N)C(c3ccccc3C(F)(F)F)C2C1 (stereo not drawn) in this test?
stdout: False

stdin: Which outcome was entered for the compound `O=C(Nc1ccc(C2=NCCN2)cc1)c1ccc(C(=O)Nc2ccc(C3=NCCN3)cc2)c([N+](=O)[O-])c1` in this test?
stdout: False

stdin: Which outcome was entered for the compound CC(NS(=O)(=O)OCC(Cl)(Cl)Cl)c1ccc(Br)cc1 (stereo not drawn) in this test?
stdout: False

stdin: Which outcome was entered for the compound `Brc1ccc(N=C/C=C/C=C/Nc2ccc(Br)cc2)cc1` in this test?
stdout: False

stdin: Which outcome was entered for the compound `Cc1noc(C)c1C(=O)OCC(=O)c1c(N)n(CC(C)C)c(=O)n(C)c1=O` in this test?
stdout: False

stdin: Which outcome was entered for the compound O=C(CCC1N=C2c3ccccc3N=C(SCC(=O)NCC3CCCO3)N2C1=O)NCc1ccc(F)cc1 (stereo not drawn) in this test?
stdout: False

stdin: Which outcome was entered for the compound `NNC(=O)c1oc2nc(-c3cccs3)cc(-c3ccco3)c2c1N` in this test?
stdout: False

stdin: Which outcome was entered for the compound COc1ccc(-c2nnn(CC(=O)N(CCCO)C(C(=O)NC3CCCC3)c3ccc(F)cc3)n2)cc1 (stereo not drawn) in this test?
stdout: False

stdin: Which outcome was entered for the compound `O=C(Nc1ccc(C2=NCCN2)cc1)c1ccc(Cl)c(C(=O)Nc2ccc(C3=NCCN3)cc2)c1` in this test?
stdout: False

stdin: Which outcome was entered for the compound `CC(C)(C)OC(=O)N1CCN(c2ccc(CNC(=O)c3ccc(Cl)cc3)cc2)CC1` in this test?
stdout: False

stdin: Which outcome was entered for the compound `COc1ccc(N2CCN(C(=O)C(=O)c3cn(CC(=O)N4CCCCCC4)c4ccccc34)CC2)cc1` in this test?
stdout: False

stdin: Which outcome was entered for the compound `COc1ccc(/C=C2\CC/C(=C\c3ccc(OC)c(OC)c3)C2=O)cc1OC` in this test?
stdout: False

stdin: Which outcome was entered for the compound CC(O)CSc1nc2c(c(=O)n(C)c(=O)n2C)n1CCCc1ccccc1 (stereo not drawn) in this test?
stdout: False

Where these numbers come from: PubChem BioAssay AID2058
